Tested on: Staphylococcus aureus CNCM 53154
Assay: Bactericidal activity (MBC), strain 5
Type: cell-based
Conditions: CNCM53154, 20 min, strain 5, 20 minutes of contact, read-out: Minimum bactericidal concentration (MBC)
Measure: MBC (µg/mL)
Dear colleague, please return just the value in µg/mL, with no unit written.

Reference set (9 entries):
Molecule | Measured
OCC(CCN1CCC(Cc2ccccc2)CC1)c1ccccc1 (stereo not shown) [SR 43 705 A] | 500
Cl.OCC(CCCCCCN1CCCCC1)c1cccc2ccccc12 (stereo not shown) [SR 43 157 A] | 200
OCC(CCCCCN1CCC(Cc2ccccc2)CC1)c1cccc2ccccc12 (stereo not shown) [SR 43 941 A] | 50
OCC(CCN1CCCCCC1)c1ccc(Cl)cc1Cl (stereo not shown) [SR 43 802 A] | 5000
CN(C)CCCC(CO)c1cccc2ccccc12 (stereo not shown) [SR 42 994 A] | 1000
OCC(CCN(C1CCCCC1)C1CCCCC1)c1cccc2ccccc12 (stereo not shown) [SR 44 227 A] | 500
CC1CCN(CCC(CO)c2cccc3ccccc23)CC1 (stereo not shown) [SR 43 382 A] | 2000
OCC(CCN1CCCC1)c1cccc2ccccc12 (stereo not shown) [SR 43 063 A] | 1000
OCC(CCN1CCCCC1)c1ccc2ccccc2c1 (stereo not shown) [SR 43 154 A] | 1000

OCC(CCCN1CCN(c2ccccc2)CC1)c1ccccc1 (stereo not shown) [SR 43 970 A, reference compound] on Staphylococcus aureus CNCM 53154 gives MBC = 5000

----------
System: Staphylococcus aureus CNCM 53154
Experiment: Bactericidal activity (MBC), strain 5
Format: cell-based
Settings: CNCM53154, 20 min, strain 5, 20 minutes of contact, read-out: Minimum bactericidal concentration (MBC)
Measure: log10 of MBC (log10 of the value in µg/mL)
In our notation, the value equals log10 of MBC in µg/mL.

Compound | log10 of MBC
OCC(CCN1CCCCCC1)c1c(Cl)cccc1Cl (centres unmarked) | 3.00
Cc1cccc(C(CO)CCN2CCC(Cc3ccccc3)CC2)c1 (centres unmarked) | 3.30
CN(C)CCCCCCC(CO)c1cccc2ccccc12 (centres unmarked) | 2.30

What the record says about CN1CCN(CCC(CO)c2cccc3ccccc23)CC1 (centres unmarked) [SR 43 291A, reference compound] : log10 of MBC is 3.90

What the record says about OCC(CCCN1CCCCC1)c1cccc2ccccc12 (centres unmarked) : log10 of MBC is 2.90

----------
System: Escherichia Coli CNCM 54125
Experiment: Bactericidal activity (MBC), strain 1
Assay type: cell-based
Conditions: 20 min, strain 1, 20 minutes of contact, read-out: Minimum bactericidal concentration (MBC)
Description: The bactericidal activity of the products according to the invention has been analyzed on various strains by the method described hereafter: […] After a 24-hour culture period at 37° C., the microbial growth is collected by means of glass beads and of 10 ml of diluent containing 1 g of tryptone and 8.5 g of sodium chloride in 1000 ml of distilled water. The formed suspension is stirred and the percentage of light transmission at 620 nm is measured with a spectrophotometer: […]
The reader will find reported log10 MBC values listed item by item below.
In our notation, the value equals log10 of MBC in µg/mL.

Reference set (5 entries):
Molecule | Target Or System | Measured
OCC(CCN1CCCCCC1)c1ccc(Cl)cc1Cl (stereo not drawn) | Escherichia Coli CNCM 54125 | 3.00
CC1CCN(CCC(CO)c2cccc3ccccc23)CC1 (stereo not drawn) | Escherichia Coli CNCM 54125 | 3.70
CC(C)N(CCC(CO)c1cccc2ccccc12)Cc1ccccc1 (stereo not drawn) | Escherichia Coli CNCM 54125 | 2.48
OCC(CCN1CCCCCC1)c1ccc(Cl)c(Cl)c1 (stereo not drawn) | Escherichia Coli CNCM 54125 | 2.60
OCC(CCN1CCCCCC1)c1ccc2ccccc2c1 (stereo not drawn) | Escherichia Coli CNCM 54125 | 3.00

What the record says about CCN(CC)CCCCCCCCCC(CO)c1cccc2ccccc12 (stereo not drawn) : log10 MBC is 1.70

What the record says about OCC(CCN1CCC(Cc2ccccc2)CC1)c1cccc2ccccc12 (stereo not drawn) : log10 MBC is 2.00

What the record says about OCC(CCCN1CCCCC1)c1cccc2ccccc12 (stereo not drawn) : log10 MBC is 3.18

----------
Test: Acute toxicity by oral route in mice
Settings: mouse, in vivo, per os, male CD1 mice, 14 days observation
The reader will find reported LD50 at 336 h values listed item by item below.
Dear colleague, please return just the value in mg/kg, with no unit written.

Compound | LD50 at 336 h, mg/kg
OCC(CCN1CCC(Cc2ccccc2)CC1)c1cccc2ccccc12 (centres unmarked) [SR 43 383 A] | 1180

Switching to the query record.
What the record says about CN(C)CCC(CO)c1cccc2ccccc12 (centres unmarked) [SR 42 643 A] : LD50 at 336 h is 400

----------
System: guinea-pig skin
Experiment: Preliminary skin tolerance in the guinea-pig
Assay type: in vivo
Settings: 0.2 ml on shorn skin once a day, six days out of seven, three weeks

Molecule | Target Or System | products found to have a bad tolerance
CC(C)N(CCC(CO)c1cccc2ccccc12)Cc1ccccc1 (stereo not drawn) | guinea-pig skin | None
CN(C)CCC(CO)c1cccc2ccccc12 (stereo not drawn) | guinea-pig skin | None
CN(C)CCCCCCC(CO)c1cccc2ccccc12 (stereo not drawn) | guinea-pig skin | None

----------
Test system: Staphylococcus aureus CNCM 53154
Test: Bactericidal activity (MBC), strain 5
Format: cell-based
Conditions: CNCM53154, 20 min, strain 5, 20 minutes of contact, read-out: Minimum bactericidal concentration (MBC)
Mark true (1) only when MBC stays strictly below 500 µg/mL. Values equal to the cut-off are false (0).

Molecule | Target Or System | Group Label
CC(C)N(CCC(CO)c1cccc2ccccc12)Cc1ccccc1 (centres unmarked) | Staphylococcus aureus CNCM 53154 | true (1)

query: Please determine if OCC(CCN1CCC(Cc2ccccc2)CC1)c1cccc2ccccc12 (centres unmarked) is below 500 µg/mL in terms of MBC.
result: true (1)

query: Please determine if CC1CCN(CCCC(CO)c2cccc3ccccc23)CC1 (centres unmarked) is below 500 µg/mL in terms of MBC.
result: false (0)

query: Please determine if CCN(CC)CCCCCCC(CO)c1cccc2ccccc12 (centres unmarked) is below 500 µg/mL in terms of MBC.
result: true (1)

query: Please determine if Cl.OCC(CCN1CCC(Cc2ccccc2)CC1)c1ccc(Cl)c(Cl)c1 (centres unmarked) is below 500 µg/mL in terms of MBC.
result: true (1)

query: Please determine if CCN(CC)CCC(CO)c1cccc2ccccc12.Cl (centres unmarked) is below 500 µg/mL in terms of MBC.
result: false (0)

query: Please determine if OCC(CCN1CCC(Cc2ccccc2)CC1)c1ccc(-c2ccccc2)cc1 (centres unmarked) is below 500 µg/mL in terms of MBC.
result: true (1)

----------
Assay: Acute toxicity by oral route in mice
Settings: mouse, in vivo, per os, male CD1 mice, 14 days observation
Measure: LD50 at 336 h

Reference set (3 entries):
Compound | Measured
OCC(CCN1CCCC1)c1cccc2ccccc12 (stereo not shown) | 300 to 400 mg/kg
OCC(CCN1CCCCCC1)c1cccc2ccccc12 (stereo not shown) | < 500 mg/kg
CN(C)CCCCCCC(CO)c1cccc2ccccc12 (stereo not shown) | 580 mg/kg

What the record says about CCN(CC)CCC(CO)c1cccc2ccccc12.Cl (stereo not shown) : LD50 at 336 h is 300 to 400 mg/kg

What the record says about CC1CCN(CCCCCCC(CO)c2cccc3ccccc23)CC1 (stereo not shown) : LD50 at 336 h is ≤ 250 mg/kg

What the record says about CN(C)CCCC(CO)c1cccc2ccccc12 (stereo not shown) : LD50 at 336 h is 750 to 1000 mg/kg

What the record says about OCC(CCN1CCC(Cc2ccccc2)CC1)c1ccc(Cl)cc1Cl (stereo not shown) : LD50 at 336 h is 1000 to 1200 mg/kg

----------
Test system: Staphylococcus aureus CNCM 53154
Test: Bactericidal activity (MBC), strain 5
Assay type: cell-based
Conditions: CNCM53154, 20 min, strain 5, 20 minutes of contact, read-out: Minimum bactericidal concentration (MBC)
Measure: MBC (µg/mL)
Dear colleague, please return just the value in µg/mL, with no unit written.

Compound | Target Or System | Measure | Quantity Unit | Measured
OCC(CCN1CCc2ccccc2C1)c1cccc2ccccc12 (stereo not shown) | Staphylococcus aureus CNCM 53154 | MBC | µg/mL | 500
CCC(CO)(CCN1CCCCC1)c1cccc2ccccc12.Cl (stereo not shown) | Staphylococcus aureus CNCM 53154 | MBC | µg/mL | 1000
OCC(CCN1CCCCCC1)c1ccc(Cl)c(Cl)c1 (stereo not shown) | Staphylococcus aureus CNCM 53154 | MBC | µg/mL | 400
OCC(CCN1CCCCC1)c1cccc2ccccc12 (stereo not shown) | Staphylococcus aureus CNCM 53154 | MBC | µg/mL | 600
CN(C)CCC(CO)c1cccc2ccccc12 (stereo not shown) | Staphylococcus aureus CNCM 53154 | MBC | µg/mL | 1000

What the record says about OCC(CCN1CCC(Cc2ccccc2)CC1)c1ccc(Cl)cc1Cl (stereo not shown) : MBC is 200

What the record says about CC1CCN(CCCCCCC(CO)c2cccc3ccccc23)CC1 (stereo not shown) : MBC is 200

What the record says about CCN(CC)CCCCCCCCCC(CO)c1cccc2ccccc12 (stereo not shown) : MBC is 50

What the record says about OCC(CCN1CCCCCC1)c1ccc2ccccc2c1 (stereo not shown) : MBC is 1000

What the record says about CC(C)N(CCC(CO)c1cccc2ccccc12)C(C)C (stereo not shown) : MBC is 800
